measured_on: TNKS1 (Homo sapiens, UniProt O95271)
Sequence (O95271 whole entry): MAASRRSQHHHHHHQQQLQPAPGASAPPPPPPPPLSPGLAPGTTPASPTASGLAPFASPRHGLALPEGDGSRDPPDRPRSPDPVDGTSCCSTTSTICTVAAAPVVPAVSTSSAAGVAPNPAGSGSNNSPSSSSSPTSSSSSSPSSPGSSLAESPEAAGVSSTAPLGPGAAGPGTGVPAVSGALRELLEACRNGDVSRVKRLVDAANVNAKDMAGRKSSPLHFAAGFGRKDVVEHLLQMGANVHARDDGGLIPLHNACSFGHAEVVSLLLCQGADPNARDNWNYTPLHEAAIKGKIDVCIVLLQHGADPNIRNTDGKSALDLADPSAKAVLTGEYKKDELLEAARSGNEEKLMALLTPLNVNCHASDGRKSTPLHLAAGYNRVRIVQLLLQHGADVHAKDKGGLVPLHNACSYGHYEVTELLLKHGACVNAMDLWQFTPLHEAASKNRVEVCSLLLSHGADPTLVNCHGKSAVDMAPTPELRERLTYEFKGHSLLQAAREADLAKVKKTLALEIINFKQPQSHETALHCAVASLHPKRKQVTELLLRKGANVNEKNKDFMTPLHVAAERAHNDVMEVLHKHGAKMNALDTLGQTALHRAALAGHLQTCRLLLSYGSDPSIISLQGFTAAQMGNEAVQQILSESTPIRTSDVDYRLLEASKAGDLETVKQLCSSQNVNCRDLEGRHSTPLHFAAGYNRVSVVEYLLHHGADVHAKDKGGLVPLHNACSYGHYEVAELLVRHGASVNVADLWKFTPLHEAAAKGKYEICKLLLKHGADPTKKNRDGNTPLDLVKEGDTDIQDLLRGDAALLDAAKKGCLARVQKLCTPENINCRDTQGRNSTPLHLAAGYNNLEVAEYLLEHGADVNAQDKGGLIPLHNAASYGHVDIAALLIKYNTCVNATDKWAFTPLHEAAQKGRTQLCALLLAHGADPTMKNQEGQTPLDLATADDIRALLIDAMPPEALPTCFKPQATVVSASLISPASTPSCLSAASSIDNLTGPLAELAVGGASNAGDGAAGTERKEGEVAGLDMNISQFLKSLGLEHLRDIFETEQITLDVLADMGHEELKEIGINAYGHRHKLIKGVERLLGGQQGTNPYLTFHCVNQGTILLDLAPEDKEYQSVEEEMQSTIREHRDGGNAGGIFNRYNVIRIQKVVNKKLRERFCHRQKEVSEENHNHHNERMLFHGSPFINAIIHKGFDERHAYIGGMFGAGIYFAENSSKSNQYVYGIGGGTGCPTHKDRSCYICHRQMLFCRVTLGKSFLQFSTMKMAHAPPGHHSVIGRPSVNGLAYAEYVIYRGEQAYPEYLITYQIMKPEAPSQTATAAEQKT
assay_comment: Modified TNKS1 Assay 2 (auto-parsylation, [3H]-NAD+ SPA)
Type: biochemical
assay_context: 6 nM TNKS1, 96 well
pIC50: −log10 of the molar value.
metric_name: pIC50

{"compound": "CN1CCN(C(C)(C)CNC(=O)c2[nH]cnc2C(=O)Nc2ccc(NC(=O)c3ccc(F)cc3Cl)cc2)CC1", "val": 7.30}

(1) CC(C)(CNC(=O)c1[nH]cnc1C(=O)Nc1ccc(NC(=O)c2ccc(F)cc2)cc1)N1CCCCC1
(2) CC(C)(CN1CCCCC1)NC(=O)c1[nH]cnc1C(=O)Nc1ccc(NC(=O)c2ccc(F)cc2Cl)cc1
Lower pIC50: 1 or 2 ? Select an item and report its label.
1

(I) CNC(=O)c1nc[nH]c1C(=O)Nc1ccc(NC(=O)c2ccc(F)cc2Cl)c(C)c1
(II) CN1CC2(C1)CN(C(=O)c1nc[nH]c1C(=O)Nc1ccc(NC(=O)c3ccc(F)cc3Cl)cc1)C2
Lower pIC50: I or II ? Select an item and report its label.
II
